System: tRNA 2'-phosphotransferase TPT1 (Candida albicans SC5314)
Protocol description: tRNA 2'-phosphotransferase blockers, C. albicans – biochemical, fluorescence polarization, primary screen (AID 1962);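 further: plate controls were DMSO alone for no effect and ferristatin control at 100 nM for full effect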
Measurement conditions: recombinant caTPT1, FP RNA substrate dephosphorylation; at 5 µM; hits give high values
Among all 300,000 compounds or so, about 2,500 (0.83%) were called active. This is one part of a sample in which actives are shown more often than they occur.
Observable: inhibition (%)
Write it as a number; the unit % goes unstated.

Give the measured inhibition for CN1C/C(=C/c2cccs2)C(=O)/C(=C\c2cccs2)C1
-2.84

Give the measured inhibition for C=CCn1c(COc2ccc(F)cc2)nnc1SCC(=O)Nc1cccc(S(N)(=O)=O)c1
-5.67

Give the measured inhibition for O=C(CSc1nnc(Nc2ccccc2)s1)Nc1cccnc1Cl
-0.7

Give the measured inhibition for CC(C(=O)N1CCN(c2ccccc2F)CC1)c1ccc([N+](=O)[O-])cc1 (configuration not stated)
0.08

Give the measured inhibition for O=C(CC12CC3CC(CC(C3)C1)C2)Nc1ccc2c(c1)COC2=O
-3.75

Give the measured inhibition for CCCC1C(=O)N2C(N(C)C)=Nc3ccc(C)cc3N2C1=O (configuration not stated)
2.58

Give the measured inhibition for COC(=O)c1c(C)oc(C)c1S(=O)(=O)Nc1ccc(C(C)C)cc1
-2.31

Give the measured inhibition for CCOC(=O)[C@H]1[C@H]2COc3ccc(Cl)cc3[C@@H]2N2C(=O)c3cc(C)ccc3NC(=O)[C@@]12C
2.94

Give the measured inhibition for CCN(CC)CCNc1nc(-c2ccc(OC(F)F)cc2)c(C)s1
-0.49

Give the measured inhibition for CCN(CC)c1ccc2cc(C(N)=O)/c(=N\NC(=O)c3ccncc3)oc2c1
133

Give the measured inhibition for CCOC(=O)C(C)N(c1ccccc1Cl)S(C)(=O)=O (configuration not stated)
0.94

Give the measured inhibition for CSC1=N/C(=C\C=C\c2cccs2)C(=O)S1
35.6

Give the measured inhibition for CCN1/C(=C/c2ccc3ccc(C)cc3[n+]2CC)Sc2ccccc21
49.5

Give the measured inhibition for C/C(=N\Nc1nc(N2CCOCC2)nc(N2CCOCC2)n1)c1ccc([N+](=O)[O-])cc1
0.13

Give the measured inhibition for CSc1nc(N(C)NC(=O)c2cccc(C)c2)c2ccccc2n1
-0.9

Give the measured inhibition for Cc1ccc(C)c(C(=O)N2CCC(n3nccc3NC(=O)C3CC3)CC2)c1
1.61

Give the measured inhibition for CC(=O)Oc1cccc(C(=O)Nc2ccccc2NC(=O)c2cccc(OC(C)=O)c2)c1
-1.86

Give the measured inhibition for Cc1ccc2[nH]c(=O)c(CC(=O)O)c(-c3ccccc3)c2c1
-1.99

Give the measured inhibition for NC(=O)c1cc2ccccc2o/c1=N/NC(=O)c1cccc(F)c1
-1.51

Give the measured inhibition for COc1ccc(Cn2c(=O)cc(C)[nH]c2=S)cc1
-2.44

Give the measured inhibition for Cc1ccc2nc(-c3ccncc3)cc(C(=O)Nc3ccncc3)c2c1
-2.29

Give the measured inhibition for CC(C)c1ccc(Nc2nnc(SCC(=O)c3nnc(-c4ccccc4)o3)s2)cc1
42

Give the measured inhibition for N#CCc1ccc(NC(=O)c2ccccc2C(=O)Nc2ccc(CC#N)cc2)cc1
-2.77

Give the measured inhibition for CCN1/C(=C\c2ccc3ccccc3[n+]2CC)Sc2cc(C)ccc21
68.7

Give the measured inhibition for O=C(NC1CCCCC1)C1CCCN(S(=O)(=O)c2ccc(Br)s2)C1 (configuration not stated)
-22.4

Give the measured inhibition for CC(C)(C)NC(=O)COC(=O)c1cc(Cl)ccc1[N+](=O)[O-]
-0.54

Give the measured inhibition for Cc1cccc(C2=N/C(=C/c3cccs3)C(=O)O2)c1
-1.73

Give the measured inhibition for CC(C)C[C@@H](N)c1nnc(SCC(=O)c2ccc(Cl)cc2)o1
3.05

Give the measured inhibition for COCC(=O)Nc1c(I)c(C(=O)NCC(O)CO)c(I)c(C(=O)N(C)CC(O)CO)c1I (configuration not stated)
1.86

Give the measured inhibition for Cc1nn2c(=O)cc(COC(=O)c3ccc(NC(=O)C(C)(C)C)cc3)nc2s1
-2.53

Give the measured inhibition for O=C(Cc1nc2ccccc2[nH]c1=O)c1ccc(Cl)cc1
52.4

Give the measured inhibition for COc1ccc(CC2c3cc(OC)c(OC)cc3CC[N+]2(C)CCC(=O)OCCCCCOC(=O)CC[N+]2(C)CCc3cc(OC)c(OC)cc3C2Cc2ccc(OC)c(OC)c2)cc1OC (configuration not stated)
0

Give the measured inhibition for O=C(/C(=C/c1cccc(Cl)c1)c1nc2ccccc2[nH]1)c1ccccc1
6.55

Give the measured inhibition for CCc1ccc(C(CNc2nc(C(F)(F)F)nc3ccccc23)N(C)C)cc1 (configuration not stated)
-2.4

Give the measured inhibition for O=C(c1cc(-c2ccc(Cl)cc2)on1)N1CCN(c2ccccc2)CC1
-0.95

Give the measured inhibition for Cc1ccc2[nH]c(=O)c(CN3CCCCC3)c(-c3ccccc3)c2c1
31.4

Give the measured inhibition for O=C(Nc1ccc(S(=O)(=O)Nc2nccs2)cc1)c1cc(=O)[nH]c2ccccc12
11.7

Give the measured inhibition for CS(=O)(=O)N(CC(=O)N/N=C/c1ccccn1)c1ccc(Oc2ccccc2)cc1
-0.87

Give the measured inhibition for COC(=O)c1ccc(Sc2ccc(F)cc2)c(N)c1
1.95

Give the measured inhibition for Cc1ccc(Nc2nnc(SCC(=O)c3cc4ccccc4o3)s2)cc1C
9.66

Give the measured inhibition for CC(=O)c1cc(NC(=O)c2ccccc2)c(=O)oc1/C=C/N(C)C
110

Give the measured inhibition for CCN1C(=O)N[C@@H](c2ccccc2)[C@H](C(C)=O)[C@H]1C
1.78

----------
Exercise: for every item that follows, state its recorded inhibition.
System: tRNA 2'-phosphotransferase TPT1 (Candida albicans SC5314)
Protocol description: tRNA 2'-phosphotransferase blockers, C. albicans – biochemical, fluorescence polarization, primary screen (AID 1962);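 further: plate controls were DMSO alone for no effect and ferristatin control at 100 nM for full effect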
Measurement conditions: recombinant caTPT1, FP RNA substrate dephosphorylation; at 5 µM; hits give high values
About 2,500 (0.83%) of roughly 300,000 compounds were called active. Only a selection was taken, and actives are over-represented in it overall.
Write it as a number; the unit % goes unstated.

Give the measured inhibition for Cc1cc(NC(=O)CCS(=O)(=O)c2ccc(F)cc2)no1
-4.5

Give the measured inhibition for CC(=O)c1ccc(N2C(=NC(=O)C(C)C)SC3CS(=O)(=O)CC32)cc1 (stereo not given)
-0.98

Give the measured inhibition for CCCc1nc2c(C)cc(-c3nc4ccccc4n3C)cc2n1Cc1ccc(-c2ccccc2C(=O)O)cc1
1.15

Give the measured inhibition for Cc1cc(C)c(S(=O)(=O)N2C=CC(C(F)(F)F)=NCC2)c(C)c1
-0.62

Give the measured inhibition for COc1ccc(NS(=O)(=O)c2ccc(C)c(C(=O)N(C)Cc3ccc(OC)cc3OC)c2)cc1
-1.13

Give the measured inhibition for Cc1cc(NC(=O)Nc2c[nH]c(=O)[nH]c2=O)ccc1Br
0.27

Give the measured inhibition for Cc1cc(N=CC2=C(O)CCCC2=O)no1
-5.36

Give the measured inhibition for CC(=O)N1c2ccccc2N(Cc2ccc([N+](=O)[O-])cc2)C(=O)C1(C)C
9.11

Give the measured inhibition for O=C(NCc1ccccc1)C(=O)NCC1OCCN1S(=O)(=O)c1ccc(Br)cc1 (stereo not given)
-2.5

Give the measured inhibition for CCOC(=O)c1c(CC(C)C)csc1/N=C/C1=C(O)CCCC1=O
98.3

----------
Exercise: for every item that follows, state its recorded inhibition.
System: tRNA 2'-phosphotransferase TPT1 (Candida albicans SC5314)
Protocol description: tRNA 2'-phosphotransferase blockers, C. albicans – biochemical, fluorescence polarization, primary screen (AID 1962);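 further: plate controls were DMSO alone for no effect and ferristatin control at 100 nM for full effect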
Measurement conditions: recombinant caTPT1, FP RNA substrate dephosphorylation; at 5 µM; hits give high values
Hit rate of the full screen: of about 300,000 compounds, about 2,500 (0.83%) were called active. The sample holds actives, similar compounds and a random draw of the others, so the mix is not that of the screen.
Write it as a number; the unit % goes unstated.

Give the measured inhibition for Cc1ccc(Sc2ccncc2S(N)(=O)=O)cc1
0.2

Give the measured inhibition for CCOc1ccc(-n2c(O)c(/C=N/c3ccnn3Cc3ccncc3)c3ccccc3c2=O)cc1
44.3

Give the measured inhibition for CC1CCC(CN2CCN=C2N(C)C)CC1 (centres undefined)
-1.25

Give the measured inhibition for CN(C)c1ccc(/C=N\S(=O)(=O)c2ccccc2)cc1
0.48

Give the measured inhibition for CC(C)(C)C(=O)Nc1ccc(C(=O)N/N=C/c2ccccc2OC(=O)c2ccc(Cl)cc2Cl)cc1
-2.72

Give the measured inhibition for Cc1ccc(-n2c(O)c(C=Nc3ccc(S(=O)(=O)Nc4ncccn4)cc3)c3ccccc3c2=O)cc1C
1.02

Give the measured inhibition for Cc1c(Cl)c([N+](=O)[O-])nn1Cc1ccc(C(=O)N/N=C\c2cc(Cl)ccc2O)o1
1.45

Give the measured inhibition for COc1ccc(OCCCn2cccc2/C=C2/C(=N)N3OC(C)=CC3=NC2=O)cc1
0.42

Give the measured inhibition for COc1cc(C(=O)N2CCN(C)CC2)cc(OC)c1OC
1.91
